Test system: MS2 coat protein
experiment: apparent KD of MS2 coat protein; higher = weaker reporter binding
protocol_conditions: Eterna round: R107; input ligand: theophylline 2 mM
property_label: apparent KD of MS2 coat protein (µM)
Form entry: value (µM) — number only.

# record_sequence, apparent KD of MS2 coat protein (µM)
records = [
    ("GGGUACAUCGCGGCCGCCACUUUUGUAAAUACAUGAGGAUCACCCAUGUCGAUGGAGACAUCGGUGAGGACCGGGUGAUGUACCG", 0.721),
    ("UAUCCACAUGAGGAUCACCCAUGUUAGGAAGGAGCGGUGAAUGAACCAGGUAGGUCGCCUAGGUGAGGACCAUCUAUGGAUUCGU [Exclusion - Arginine A (Freestyle 12)]", 0.0146),
    ("UGAGAGACCAGAAGGAGCGACAUGAGGAUCACCCAUGUCUCCCGUUAUGGGAGUUCUUUAGGUCAGGUAGGUCGCUGGUCUCUCA [#1 Exclusion - Arginine B Attempt #8 (Inspired by Omei)]", 0.149),
    ("GCUACAUGAGGAUCACCCAUGUAUGCGAGUCGAGGACCGGUACGGCCGCCACUCGCUUAACAUGAGGAUCACCCAUGUUACUCGC [SSTA DOUBLE!!! :-D #19]", 0.0887),
    ("ACAUGAGGAUCACCCAUGUACAUGAGGGAAGGAGCGGUACAUGUACCAGGUAGGUCGCCCAACAGCAUCAGCCAUGUACAUCAGC [ggvmullin]", 0.0904),
    ("GGAGCUACGUCGGCCGCCACUAGCGGUAAUUACGUGUACAUGAGGAUCACCCAUGUAAUAUGGACUAGGACCGGGACGUAGCUCC [Salmon]", 0.0137),
]

Here is another sequence to look at.
**Query** Return apparent KD of MS2 coat protein measured with MS2 coat protein given this sequence: AAACAUGAGGAUCACCCAUGUAUACUUAGACGAGGACCGGUACGGCCGCCACUCGAACUUCAAGAUUUGGCGGAUAAUGUAUGUA [JR_Nu22_ExcTryptoA_Sub023]
**Result** 0.0119
